tested on: biotinyl-Ile-oxazolone; assay: self-aminoacylation, catalytic enhancement (BIO) (fold over background); higher = more active; k-Seq, kA / k0A0; sequences stand for … in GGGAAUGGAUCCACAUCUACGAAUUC…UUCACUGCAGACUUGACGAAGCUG
Fewer inactive variants are shown than the library holds.
Kindly state self-aminoacylation for each of the entries shown.
Numbers only.

INSERT INTO assay_data (item_sequence, meas_value) VALUES
  ('AUUCACCUAGAUCAUCGCGUG [Fam2.2 aminoacylation ribozyme variant]', 3.85);

# per-item lookup of self-aminoacylation; items listed below
1. CUACUUCAAACAAUCAGCCUG [Fam1A.1 aminoacylation ribozyme variant]
2. AUUACCCUGGUCAUCUAGUGU [Fam2.1 aminoacylation ribozyme variant]
3. CCACACUUCAACCAAGCGGUC [Fam1B.1 aminoacylation ribozyme variant]
4. AUUCAUGUAGGUCAUCGGGUG [Fam2.2 aminoacylation ribozyme variant]

0.99
2.02
0.95
3
